Reference source: a protein production outcome set (Wang et al. 2014)

# ASSAY INFO: label from the status in PepcDB records
OUTCOME MEASURE: protein production

Some solved cases for reference:
MASKSSFMATFNIVTLMLMVASSTVTARPLMKPSMGTSSPTTSLVYRLKLDEDTGYCWDSLMQLQHCSGELILFFLNGETYIGPGCCSAIRTIGRKCWPTMIGVLGFTAQEGDMLQGYCDGNDSDNNGEDHALASSTLPLSVNFKTTVVRSSASPSNP = failed
MTQSLFDFSAYFKFFIGLFALVNPVGIIPVFISMTSYQPAAVRNKTNLTANLSVAIILLTSLFLGDGILQIFGISIDSFRIAGGILVVTIAMSMISGKLGEDKQNKQEKSETAVRESIGVVPLALPLMAGPGAISSTIVWGTRYHSWVHLVGFSLAIAVFALCCWGIFRMAPWLVRLLGQTGINVITRIMGLLLMALGIEFIVTGIKALFPGLLS = failed
LETSWIKPGQASWEWWNDAAPYGPDVNFVSGYNLETYKYYIDFASKYGIRYIIMDEGWAKSTRDPYTPNAKVDVHELIRYAEKKNVGIVLWLTWLTVENNMDLFKTFSEWGVKGVKIDFMDRSDQWMMNFYERVAAEAAKYKLFVDFHGSVSPKGLEYKYPNVLSYEGVRGMEQMGGATPDNSIFMPFMRNAVGAMD = not failed
MKKEKKDYYEILGVPRDATQEEIKRAYKRLVKEWHPDRHPENRKEAEQRFKEIQEAYEVLSDPQKRAMYDRFGYVGEQPTYQETESGGFFDDIFRDFENIFNRDIFDVFFGERPHQEERREYARRGEDIRYEIEVTLSDLINGAEIPVEYERYETCPRCGGTGVEPNAGYMDCPSCGGTGRIREERRSFFGYFVSERTCERCGGTGKIPREYCHECGGSGRVLRKVRRTVKIPPNVEDGTHLRITGGGNAGYYGGPYGDLIIIVRVKPDPRFKKSGSDLVYDVTIDYLQAILGTTVEVPLPEGGTTMLKIPPGTQPETVFRLKGKGLPNRYGRRGDLIVNVHVEIPKSLSREERKVLEELAKKRGVTIG = failed
MIMANWQSIDELQDIASDLPRFTHALDELSRRLGLDITPLTADHISLRCHQNVTAERWRRGFEQCGELLSENMINGRPICLFKLHEPVQVAHWQFSIVELPWPGEKRYPHEGWEHIEIVLPGDPETLNARALALLSDEGLSLPGISVKTSSPKGEHERLPNPTLAVTDGKTTIKFHPWSIEEIVASEQSA = not failed

Sample HHSVEAPQVKKRMGKFPFVKASKKESEEISKQLHNALDIELPSESTVWLRDKDVWLFPDALEPMIGELRFSRMGIKIAEAHKNGYRWQHQVATALATGAESNAIELTIEEAREWYMGRDVRPQIIPEGLKTGKGEVLVKYQGAIIGLGKWVSNRIKNGLPRELVRDKNLF — what was its protein production?
not failed

What about this sequence? MKQPTLAVIMTCHNRRNTTLACLQALYQQKNHFDVYLTDDGSTDGTAEFIKAEYPDVKIFQGDGNLFWVGGMHLAFGEAIKNQYDYYLWLNDDTFLEADALEKLLQVHENLAVEGYGQSIVVGSTQDPITKQATYGGAVKSKKWYSNKFEFLEPTSDVQKCDAMYGNCVLIPHSVTLKVGNIDTAFIHSLGDLDYALRARNLGCHVWVAPGYIGTCNKNSVRNSWVDTKLPVLERLRKILQIKGFPLKPWTTFCSRHSGPFWIFYWFLPYIRAIIGYKNLATSPTFSEDPKETKPEV
failed

Can you handle MSLKEFKIGWFATILGTGGVAIASLPYFPVLSVVLTYLLTAIFVILTAVWLAKIIRYPRVVAAELGHFVMGNFYPLQPISAVILAILYRKLGIPLDLPLLAYGAGLILVLTVYLSYHFFANVKAEIHHIHGGWFIPPVSTILVTDALLQYSPNETFFVTSLIYFGIGLMLFLFISTILFLRLVNHELPVFELAPTNFILLAPIGILIVDFTLIAKHAEAIFSANLVPLALIASISLWGFGLWALAVNILLLLRYLRQEMPFFLGWWSYVFPTAAYTLSTIALSHFVPVFSYAATALYAFLIAAWAIIGVRTVGIAIRGA next?
failed

Here is the next sequence: METELVTYKEKNVQMSMLEVIGMIGIIFGVMYGIGYLNFLYEFSLYPWYVNHLISPFTFCMIIVMYAPARNYCVQLVKSIQFNHFKHYVTIVMTMIVLLIYLAVLNLVLPHGLGVEGSNIVIEPTKNEIILYVVVLTIFAPIWEELVFRGMFFMKLSQRFSTLSSAVISAFIFTLGHPLTVGSILYIFGIGICLAYTYKKTNNLLVPIGIHVLNNSFNLLVNFQL
failed

Another: MDHDKTGCQSPPEGPKLCTNNCGFFGSAATMNMCSKCHKDMLFQQEQGAKFASAVSGTSSSSNIIKETFTAALVDIETKSVEPMTVSVQPSSVQVVAEVVAPEEAAKPKGPSRCTTCNKRVGLTGFKCRCGSLFCGTHRYADVHDCSFNYHAAAQEAIAKANPVVKAEKLDKI
failed
